target: human P2X3 receptor (Homo sapiens (Human)); test: P2X3 receptor inhibition, ATP-evoked Fluo-3 calcium fluorescence (FDSS 3000); conditions: C6BU-1 cell transfected with human P2X3 receptor gene; ATP-evoked Fluo-3 fluorescence
Sequence (P56373 whole entry): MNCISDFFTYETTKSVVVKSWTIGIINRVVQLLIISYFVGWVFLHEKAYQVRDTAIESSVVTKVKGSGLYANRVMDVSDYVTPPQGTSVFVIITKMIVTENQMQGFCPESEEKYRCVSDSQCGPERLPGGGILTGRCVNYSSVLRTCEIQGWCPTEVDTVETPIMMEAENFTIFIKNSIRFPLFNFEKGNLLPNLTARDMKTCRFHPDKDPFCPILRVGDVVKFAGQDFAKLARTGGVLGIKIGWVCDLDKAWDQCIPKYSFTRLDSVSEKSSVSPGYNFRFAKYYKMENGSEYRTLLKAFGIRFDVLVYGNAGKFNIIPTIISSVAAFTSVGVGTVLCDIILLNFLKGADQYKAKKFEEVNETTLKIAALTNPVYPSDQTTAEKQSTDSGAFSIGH
REPORTED ENDPOINT: log10 of IC50 (log10 of the value in nM)

>>> print(df.to_string())
                                    compound  reported_endpoint  measured_number
 0  COCCOCc1ncccc1C1c2c(C(C)(C)C)n[nH]c2C(=O)N1c1ccc(-c2ccsc2)cc1 (stereo not drawn) [II-277]      log10 of IC50             2.44
 1  COc1ncccc1C1c2c(C(C)(C)C)n[nH]c2C(=O)N1c1ccc(Br)cn1 (stereo not drawn) [II-259]      log10 of IC50             2.61
 2  CC(C)C(=O)C1=C(O)C(=O)N(c2ccc(-c3ccsc3)cc2)C1c1cccnc1OCCO (stereo not drawn) [Compound I-176]      log10 of IC50             1.66
 3  Cc1ccc(-c2ccc(N3C(=O)C(O)=C(C(=O)C(C)C)C3c3ccccc3N3CCOCC3)cc2)o1 (stereo not drawn) [Compound I-486]      log10 of IC50             0.60
 4  Cc1cc(-c2ccc(N3C(=O)C(O)=C(C(=O)C(C)C)C3c3ccccc3C(=O)N(C)CCO)cc2)cs1 (stereo not drawn) [Compound I-584]      log10 of IC50             2.22
 5  CC(C)C(=O)C1=C(O)C(=O)N(c2ccc(-c3ccsc3)cc2)C1c1ccccc1OCC(=O)O (stereo not drawn) [Compound I-185]      log10 of IC50             2.05
 6  COCCOc1ccccc1C1c2c(C(C)(C)CO)n[nH]c2C(=O)N1c1ccc(-c2ccsc2)cc1 (stereo not drawn) [II-130]      log10 of IC50             0.60
 7  COCc1ccccc1[C@@H]1C(C(=O)C(C)C)=C(O)C(=O)N1c1ccc(-c2ccsc2)cc1 [Compound I-255]      log10 of IC50             0.90
 8  COCCOc1ncccc1C1C(C(=O)C(C)C)=C(O)C(=O)N1c1ccc(-c2ccsc2)cc1 (stereo not drawn) [Compound I-169]      log10 of IC50             1.28
 9  CCCc1ccc(N2C(=O)c3[nH]nc(C(C)(C)C)c3C2c2ccccc2OC)cc1 (stereo not drawn) [II-001]      log10 of IC50             2.02
10  COc1ccccc1C1c2c(C(C)(C)CO)n[nH]c2C(=O)N1c1ccc(-c2noc(C)n2)cc1 (stereo not drawn) [II-137]      log10 of IC50             2.17
11  COc1ccc(C2C(C(=O)C(C)C)=C(O)C(=O)N2c2ccc(-c3ccsc3)cc2)cc1 (stereo not drawn) [Compound I-285]      log10 of IC50             2.81
12  COc1ncccc1C1c2c(C(C)(C)C)n[nH]c2C(=O)N1c1ccc(-c2cccs2)cn1 (stereo not drawn) [II-260]      log10 of IC50             1.56
13  COc1ccccc1C1c2c(C(C)(C)C)n[nH]c2C(=O)N1c1ccc(-c2csc(C)c2)cc1 (stereo not drawn) [II-274]      log10 of IC50             1.28
14  COc1ncccc1C1c2c(C(C)(C)C)n[nH]c2C(=O)N1c1ccc(-c2ccoc2)cn1 (stereo not drawn) [II-261]      log10 of IC50             2.15
15  COCc1ccccc1C1C(C(=O)CC(C)C)=C(O)C(=O)N1c1ccc(SC(F)(F)F)cc1 (stereo not drawn) [Compound I-448]      log10 of IC50             2.39
16  COCCOc1ccccc1C1C(C(=O)CC(C)C)=C(O)C(=O)N1c1ccc(-c2csc(C)n2)cc1 (stereo not drawn) [Compound I-427]      log10 of IC50             2.52
17  CC(C)C(=O)C1=C(O)C(=O)N(c2ccc(-c3ccsc3)cc2)C1c1cccnc1OCCCO (stereo not drawn) [Compound I-564]      log10 of IC50             1.26
18  COCCCOc1ccccc1C1C(C(=O)C(C)C)=C(O)C(=O)N1c1ccc(-c2noc(C)n2)cc1 (stereo not drawn) [Compound I-491]      log10 of IC50             2.19
19  COCc1ccccc1C1C(C(=O)C(C)C)=C(O)C(=O)N1c1ccc(-c2ccccc2)cc1 (stereo not drawn) [Compound I-282]      log10 of IC50             2.67
20  COc1ccccc1C1c2c(C(C)C)n[nH]c2C(=O)N1c1ccc(-c2ccsc2)cc1 (stereo not drawn) [II-079]      log10 of IC50             1.04
21  CNC(=C(C)C)C1=C(O)C(=O)N(c2ccc(-c3ccsc3)cc2)C1c1cccnc1O (stereo not drawn) [Compound I-253]      log10 of IC50             2.29
22  COc1ccc(C(=O)C2=C(O)C(=O)N(c3nc4ccc(OC)cc4s3)C2c2ccccc2OCCO)cc1 (stereo not drawn) [Compound I-126]      log10 of IC50             1.18
23  COc1ncccc1C1c2c(C(C)(C)C)n[nH]c2C(=O)N1c1ccc(-c2ccsc2)cc1 (stereo not drawn) [II-223]      log10 of IC50             1.36
24  COCCCOc1ccccc1C1C(C(=O)CC(C)C)=C(O)C(=O)N1c1ccc(-c2ccsc2)cc1 (stereo not drawn) [Compound I-490]      log10 of IC50             1.23
25  CC(C)c1n[nH]c2c1C(c1cccnc1OCCO)N(c1ccc(-c3ccon3)cc1)C2=O (stereo not drawn) [II-044]      log10 of IC50             2.76
26  Cc1ccc(-c2ccc(N3C(=O)C(O)=C(C(=O)C(C)C)C3c3cccnc3OCCCO)cc2)s1 (stereo not drawn) [Compound I-568]      log10 of IC50             1.82
27  Cc1nc(-c2ccc(N3C(=O)c4[nH]nc(C(C)C)c4C3c3cccnc3OCCO)cc2)no1 (stereo not drawn) [II-046]      log10 of IC50             2.94
28  COCc1ncccc1C1c2c(C(C)(C)C)n[nH]c2C(=O)N1c1ccc(-c2ccsc2)cc1 (stereo not drawn) [II-126]      log10 of IC50             2.34
29  COCCOc1ccccc1C1C(C(=O)C(C)C)=C(O)C(=O)N1c1ccc(-c2csc(C)c2)cc1 (stereo not drawn) [Compound I-261]      log10 of IC50             1.28
30  COc1ccc(C(=O)C2=C(O)C(=O)N(c3ccc(C4=NCCS4)cc3)C2c2ccccc2OC)cc1 (stereo not drawn) [Compound I-028]      log10 of IC50             1.88
31  COCc1ccccc1C1C(C(=O)C(C)C)=C(O)C(=O)N1c1ccc(-c2csc(C)n2)cc1 (stereo not drawn) [Compound I-425]      log10 of IC50             2.84
32  Cc1ccc(-c2ccc(N3C(=O)C(O)=C(C(=O)C(C)C)C3c3ccccc3OC(C)C)cc2)o1 (stereo not drawn) [Compound I-396]      log10 of IC50             0.85
